- Tested on: TRKC;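 also: KINOMEscan kinase panel screen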
- Construct: gene NTRK3
- Reported Conditions: concentration: 1 μM, replicates: in singlicate; n = 1
Parameter: %Inh

Exercise: Provide one value: measured %Inh of CCc1nc(-c2cccc(C)c2)c(-c2ccncc2)s1
Solution: 0%

Exercise: Provide one value: measured %Inh of COc1cc2ncn(-c3cc(OCc4ccncc4Br)c(C(N)=O)s3)c2cc1OC
Solution: 7%

Exercise: Provide one value: measured %Inh of O=C(Nc1n[nH]c2cc(-c3ccccc3F)ccc12)C1CC1
Solution: 19%

Exercise: Provide one value: measured %Inh of CCC(=O)c1c(-c2ccccc2)c2cc(Cl)ccc2c(=O)n1Cc1cc(C(=O)NC2CC2)n(C)n1
Solution: 7%

Exercise: Provide one value: measured %Inh of CCn1c(-c2nonc2N)nc2ccccc21
Solution: 15%

Exercise: Provide one value: measured %Inh of COc1cc2ncn(-c3cc(OCCCc4ccccc4)c(C(N)=O)s3)c2cc1OC
Solution: 24%

Exercise: Provide one value: measured %Inh of Cc1c(Cn2c(C)nn3c(=O)cc(N4CCO[C@H](C)C4)nc23)cccc1C(F)(F)F
Solution: 11%

Exercise: Provide one value: measured %Inh of Cc1cccc(-c2cc(-c3c[nH]nc3-c3ccccn3)ccn2)c1
Solution: 20%

Exercise: Provide one value: measured %Inh of Nc1ncnc2c1ncn2-c1ccc(Cl)cc1
Solution: 16%

Exercise: Provide one value: measured %Inh of Cl.c1ccc(Cn2cnc3cc(Nc4ncnc5ccccc45)ccc32)cc1
Solution: 0%

Exercise: Provide one value: measured %Inh of CN(C)c1cc(-c2ccc3c(N)n[nH]c3c2)nc(N)n1
Solution: 0%

Exercise: Provide one value: measured %Inh of COc1cc(Nc2nccc(N3CCC(NC(=O)C(C)c4ccc(Cl)cc4)C3)n2)cc(OC)c1OC (stereo not shown)
Solution: 43%

Exercise: Provide one value: measured %Inh of O=C(Nc1n[nH]c2nc(-c3ccccc3)c(Cl)cc12)C1CC1
Solution: 0%

Exercise: Provide one value: measured %Inh of COc1cc(OC)cc(-c2cc3cnc(N)nc3nc2NC(=O)NC(C)(C)C)c1
Solution: 0%

Exercise: Provide one value: measured %Inh of Cc1nc(N(C)[C@H]2CN(C(=O)CC#N)CC[C@H]2C)c2cc[nH]c2n1
Solution: 0%

Exercise: Provide one value: measured %Inh of Cc1cc(Nc2nc(-c3cccc(C)n3)nc3ccccc23)ccn1
Solution: 0%

Exercise: Provide one value: measured %Inh of COC(=O)c1c(-c2ccccc2)c2cc(Br)ccc2c(=O)n1Cc1ccc(S(C)(=O)=O)cc1
Solution: 24%

Exercise: Provide one value: measured %Inh of O=C1NC(=O)C(c2ccccc2)=C1Nc1cccc(O)c1
Solution: 37%

Exercise: Provide one value: measured %Inh of Cl.NS(=O)(=O)c1cccc(Nc2cc(-c3ccc(F)cc3)n[nH]2)c1
Solution: 31%

Exercise: Provide one value: measured %Inh of CN1C(=O)C(Nc2ccccc2)=C(c2ccccc2)C1=O
Solution: 11%

Exercise: Provide one value: measured %Inh of COc1ccc(-c2coc3ccc(-c4nnc(SCc5cccc(C#N)c5)o4)cc23)cc1
Solution: 3%

Exercise: Provide one value: measured %Inh of CCC(=O)c1c(-c2ccccc2)c2cc(Cl)ccc2c(=O)n1Cc1cc(S(C)(=O)=O)n(CC(N)=O)n1
Solution: 0%

Exercise: Provide one value: measured %Inh of COc1cc2ncn(-c3cc(OCc4ccncc4)c(C(N)=O)s3)c2cc1OC
Solution: 0%

Exercise: Provide one value: measured %Inh of COc1cc2nccc(Nc3ccc(OCc4ccc(NC(C)=O)cc4)cc3)c2cc1OC.Cl
Solution: 21%

Exercise: Provide one value: measured %Inh of Nc1nc(-c2ccccc2F)c(-c2ccnc3ccccc23)s1
Solution: 31%

Exercise: Provide one value: measured %Inh of CCC(=O)c1c(-c2ccccc2)c2cc(Cl)ccc2c(=O)n1Cc1ccc(C(=O)O)cc1
Solution: 0%

Exercise: Provide one value: measured %Inh of COc1cccc(C2=C(Nc3cccc(C(=O)O)c3)C(=O)NC2=O)c1
Solution: 0%

Exercise: Provide one value: measured %Inh of Cc1ccc(-c2ccc3c(ccc4sc5c(c43)NC[C@@H](C)N=C5N(C)C)n2)cn1
Solution: 0%

Exercise: Provide one value: measured %Inh of Cc1cccc(-c2nc(Nc3ccc4c(cnn4C)c3)c3ccccc3n2)n1
Solution: 0%

Exercise: Provide one value: measured %Inh of Nc1nccc2scc(-c3ccc4c(c3)CCN4C(=O)Cc3ccccc3)c12
Solution: 0%

Exercise: Provide one value: measured %Inh of COc1cccc(C2=C(N(C)c3ccccc3)C(=O)NC2=O)c1
Solution: 23%

Exercise: Provide one value: measured %Inh of COc1ccc(CNC(=O)NC2CCN(c3ccnc(Nc4ccc(F)cc4)n3)C2)cc1 (stereo not shown)
Solution: 44%

Exercise: Provide one value: measured %Inh of COc1cc2ncn(-c3cc(OCc4ccc(S(C)(=O)=O)cc4)c(C(N)=O)s3)c2cc1OC
Solution: 44%

Exercise: Provide one value: measured %Inh of Cc1nnc(-c2ccc(C)c(-c3ccc(C(=O)O)cc3)c2)o1
Solution: 0%

Exercise: Provide one value: measured %Inh of COc1cc(Nc2ccnc3ccc(C(F)(F)F)cc23)cc(OC)c1OC
Solution: 14%

Exercise: Provide one value: measured %Inh of Nc1ncnc2c1ncn2-c1cccc(F)c1
Solution: 41%

Exercise: Provide one value: measured %Inh of CC(C)(C)c1ccc(C(=O)Nc2cn3cc(-c4ccccc4)ccc3n2)cc1
Solution: 3%
